Biological target: SIK2 (Homo sapiens (Human))
Sequence (Q9H0K1 whole entry, species assumed): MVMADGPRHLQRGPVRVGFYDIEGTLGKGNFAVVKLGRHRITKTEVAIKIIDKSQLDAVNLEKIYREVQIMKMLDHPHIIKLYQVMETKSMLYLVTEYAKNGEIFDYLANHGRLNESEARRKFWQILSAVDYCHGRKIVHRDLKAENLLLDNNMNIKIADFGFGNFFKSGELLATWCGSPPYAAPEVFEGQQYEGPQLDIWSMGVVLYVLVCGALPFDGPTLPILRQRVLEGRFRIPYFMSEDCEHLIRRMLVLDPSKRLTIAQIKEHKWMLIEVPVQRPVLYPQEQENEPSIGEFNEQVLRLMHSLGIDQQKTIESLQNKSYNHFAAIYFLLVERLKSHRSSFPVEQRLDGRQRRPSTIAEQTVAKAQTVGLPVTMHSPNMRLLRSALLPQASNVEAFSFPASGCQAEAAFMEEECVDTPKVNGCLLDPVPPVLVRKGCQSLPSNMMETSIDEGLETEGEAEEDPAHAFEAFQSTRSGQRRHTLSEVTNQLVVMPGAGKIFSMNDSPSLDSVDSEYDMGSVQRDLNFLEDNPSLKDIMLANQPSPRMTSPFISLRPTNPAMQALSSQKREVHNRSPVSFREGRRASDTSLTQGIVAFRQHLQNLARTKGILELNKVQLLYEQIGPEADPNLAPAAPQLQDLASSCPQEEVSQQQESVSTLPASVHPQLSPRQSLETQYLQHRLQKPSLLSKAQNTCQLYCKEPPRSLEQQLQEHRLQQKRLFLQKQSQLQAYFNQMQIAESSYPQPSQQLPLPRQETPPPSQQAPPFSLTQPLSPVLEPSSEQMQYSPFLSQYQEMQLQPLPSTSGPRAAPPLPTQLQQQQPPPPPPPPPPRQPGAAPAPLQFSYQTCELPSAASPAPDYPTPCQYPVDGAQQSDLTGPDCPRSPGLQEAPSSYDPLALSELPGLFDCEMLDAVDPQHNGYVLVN
Experiment: SIK2 Enzymatic Assay Version 2 (High ATP)
Type: biochemical
Settings: 3 mM ATP and 200 μM HDAC5tide final, ADP-Glo Max luminescence
Kindly supply the reported pIC50 values for the records listed here.
One number for each entry, as −log10 of the molar value.

Would you please look over these solved cases?
{"Compound": "Cc1ccc(Nc2cc3cc(-c4c(OC[C@H]5CCN5C)cnn4C)ccn3n2)nn1 [Example 39]", "Quantitative result": 8.47}
{"Compound": "CN1C[C@@H](COc2cnn(C)c2-c2ccn3nc(NC(=O)C4CC4)cc3c2)[C@H](O)C1 [Example 417]", "Quantitative result": 6.89}
{"Compound": "Cn1ncc(OC[C@H]2CCN2CCOC(F)(F)F)c1-c1ccn2nc(NC(=O)C3CC3)cc2c1 [Example 431]", "Quantitative result": 6.74}
{"Compound": "Cc1cncc(Nc2cc3cc(-c4c(CO[C@@H]5CN(C)C[C@@H]5C)cnn4C)ccn3n2)n1 (stereo in doubt) [Example 379]", "Quantitative result": 8.66}
{"Compound": "CN1C[C@H](F)[C@H](Oc2cnn(C)c2-c2ccn3nc(NC(=O)C4CC4)cc3c2)C1 [Example 415]", "Quantitative result": 6.91}
{"Compound": "Cc1onc(O[C@H]2CNC[C@@H]2F)c1-c1ccn2nc(NC(=O)C3CC3)cc2c1 [Example 82]", "Quantitative result": 5.40}

I need pIC50 for every entry listed below, if you could help.
1. Cc1cnc(Nc2cc3cc(-c4c(CO[C@H]5CN(C)C[C@@H]5C)cnn4C)ccn3n2)cn1 (stereo in doubt) [Example 469]
2. Cc1onc(OC[C@](C)(c2ccccc2)N(C)C)c1-c1ccn2nc(NC(=O)C3CC3)cc2c1 [Example 226]
3. Cc1cc(Nc2cc3cc(-c4c(OC[C@H]5CCN5CCF)cnn4C)ccn3n2)nnc1C [Example 276]
4. Cc1nccc(Nc2cc3cc(-c4c(OC[C@H]5CCCN5C)cnn4C)ccn3n2)n1 [Example 286]

[A]
7.56
7.89
9.05
7.63

I need pIC50 for every entry listed below, if you could help.
1. CC(C)N1CC[C@H]1COc1cnn(C)c1-c1ccn2nc(NC(=O)C3CC3)cc2c1 [Example 48]
2. CN1CC[C@H](Oc2cnn(C)c2-c2ccn3nc(Nc4cc(C(F)(F)F)cnn4)cc3c2)C1 [Example 457]
3. Cc1cc(Nc2cc3cc(-c4c(OC[C@H]5CCN5CCF)cnn4C)ccn3n2)nc(C)n1 [Example 274]
4. Cn1ncc(O[C@H]2CCNC2)c1-c1ccn2nc(NC(=O)C3CC3)cc2c1 [Example 236]
5. CN1CC(F)(F)C1COc1cnn(C)c1-c1ccn2nc(NC(=O)C3CC3)cc2c1 (racemic) [Example 60]
6. CO[C@H]1CNC[C@@H]1COc1cnn(C)c1-c1ccn2nc(NC(=O)C3CC3)cc2c1 [Example 351]

[A]
6.57
6.78
9.05
7.54
6.64
7.28
